This section presents binders with their documented Kd values.
assay.target: T1, soluble Homo sapiens CD131 comprising a C-terminal 6xHis tag (human, UniProt P32927 17-438)
T1 construct: truncated after Ser438, C-terminal 6xHis; also called shCD131; shβc
T1 sequence: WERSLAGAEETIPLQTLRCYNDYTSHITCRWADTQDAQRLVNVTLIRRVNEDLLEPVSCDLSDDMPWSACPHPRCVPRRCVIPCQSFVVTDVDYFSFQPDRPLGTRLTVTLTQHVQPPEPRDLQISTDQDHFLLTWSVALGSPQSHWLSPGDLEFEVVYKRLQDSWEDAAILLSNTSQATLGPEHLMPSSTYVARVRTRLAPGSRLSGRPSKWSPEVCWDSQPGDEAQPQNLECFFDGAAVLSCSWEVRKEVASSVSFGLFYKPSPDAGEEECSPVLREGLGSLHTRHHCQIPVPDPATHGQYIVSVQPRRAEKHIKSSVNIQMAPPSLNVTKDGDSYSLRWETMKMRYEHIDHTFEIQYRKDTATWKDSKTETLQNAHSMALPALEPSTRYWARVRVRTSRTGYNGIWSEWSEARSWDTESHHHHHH
experiment: SPR, Fab over captured shCD131
Procedure: Binding kinetics were measured using SPR with a BIAcore™ A-100 instrument (GE Healthcare Life Sciences). […] shCD131 was captured on spots 1 and 5 of each flow cell for 2 minutes at a concentration of 0.4 μg/ml. […] For some analysis purified Fab was injected over each flow cell for 3 minutes and dissociation was monitored for a further 10 minutes. […] The analysis was performed with Fabs at several concentrations between 100 and 0.31 nM, with each concentration analyzed twice and in random order. […]

{"binder": "9A2-VR39.01 Fab (Fab, V domains shown, recombinant Fab) VH: EVQLLESGGGLVQPGGSLRLSCAASGFTFFWFHHVWVRQAPGKGLEWVSSINGRGRVTYYADSVKGRFTISRDNSKNTLYLQMNSLRAEDTAVYYCARFYDSFFDIWGQGTMVTVSS VL: DIQMTQSPSSVSASVGDRVTITCRASQGISSWLAWYQQKPGKAPKLLIYAASSLQSGVPSRFSGSGSGTDFTLTISSLQPEDFATYYCQQANSFPITFGQGTRLEIKR", "Kd": "0.102 nM"}
{"binder": "9A2-VR24.33 Fab (Fab, V domains shown, recombinant Fab) VH: EVQLLESGGGLVQPGGSLRLSCAASGFTFPWYRVHWVRQAPGKGLEWVSSIRSSGGFPYYNHKVKGRFTISRDNSKNTLYLQMNSLRAEDTAVYYCARFYDSFFDIWGQGTMVTVSS VL: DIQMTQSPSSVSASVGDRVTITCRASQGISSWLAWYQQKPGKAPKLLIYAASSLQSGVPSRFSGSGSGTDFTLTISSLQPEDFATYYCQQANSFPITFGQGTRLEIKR", "Kd": "0.149 nM"}

--- query ---
Request: Any idea what Kd was measured for 9A2-VR24.111 Fab (Fab, V domains shown, recombinant Fab) VH: EVQLLESGGGLVQPGGSLRLSCAASGFTFPWYRVHWVRQAPGKGLEWVSSIRSSGGFPMYNPHVKGRFTISRDNSKNTLYLQMNSLRAEDTAVYYCARFYDSFFDIWGQGTMVTVSS VL: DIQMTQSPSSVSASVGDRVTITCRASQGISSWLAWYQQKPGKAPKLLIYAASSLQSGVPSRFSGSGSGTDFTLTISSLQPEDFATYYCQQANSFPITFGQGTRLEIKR ?
Response: 0.236 nM
